In this section, each of the compounds is paired with its reported Ki.
# system: human thrombin (Homo sapiens (Human))

INSERT INTO assay_data (structure_as_smiles, observed_value) VALUES
  ('O=C(NC[C@@H]1OC(=O)N2c3ccc(N4CCOCC4=O)cc3OC[C@@H]12)c1ccc(Cl)s1', '> 1000 nM');

State the recorded Ki for this entry: `O=C(NC[C@@H]1OC(=O)N2c3ccc(-n4ccccc4=O)cc3OC[C@@H]12)c1ccc(Cl)s1`
> 1000 nM

---

# system: prothrombinase (Homo sapiens (Human))
# Sequence (P00742 235-488): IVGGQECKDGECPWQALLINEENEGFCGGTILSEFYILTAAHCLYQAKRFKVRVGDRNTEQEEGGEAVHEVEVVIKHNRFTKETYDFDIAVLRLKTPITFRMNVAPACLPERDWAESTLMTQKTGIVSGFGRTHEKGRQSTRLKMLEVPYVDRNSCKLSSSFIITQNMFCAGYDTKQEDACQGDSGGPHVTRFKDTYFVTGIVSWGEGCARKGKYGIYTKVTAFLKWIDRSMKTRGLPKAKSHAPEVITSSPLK
# Sequence (P00742 41-179): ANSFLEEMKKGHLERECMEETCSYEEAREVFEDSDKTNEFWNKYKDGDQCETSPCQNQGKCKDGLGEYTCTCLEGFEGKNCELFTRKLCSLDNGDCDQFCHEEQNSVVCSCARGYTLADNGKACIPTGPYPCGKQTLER
# Sequence (P12259 29-737 partner): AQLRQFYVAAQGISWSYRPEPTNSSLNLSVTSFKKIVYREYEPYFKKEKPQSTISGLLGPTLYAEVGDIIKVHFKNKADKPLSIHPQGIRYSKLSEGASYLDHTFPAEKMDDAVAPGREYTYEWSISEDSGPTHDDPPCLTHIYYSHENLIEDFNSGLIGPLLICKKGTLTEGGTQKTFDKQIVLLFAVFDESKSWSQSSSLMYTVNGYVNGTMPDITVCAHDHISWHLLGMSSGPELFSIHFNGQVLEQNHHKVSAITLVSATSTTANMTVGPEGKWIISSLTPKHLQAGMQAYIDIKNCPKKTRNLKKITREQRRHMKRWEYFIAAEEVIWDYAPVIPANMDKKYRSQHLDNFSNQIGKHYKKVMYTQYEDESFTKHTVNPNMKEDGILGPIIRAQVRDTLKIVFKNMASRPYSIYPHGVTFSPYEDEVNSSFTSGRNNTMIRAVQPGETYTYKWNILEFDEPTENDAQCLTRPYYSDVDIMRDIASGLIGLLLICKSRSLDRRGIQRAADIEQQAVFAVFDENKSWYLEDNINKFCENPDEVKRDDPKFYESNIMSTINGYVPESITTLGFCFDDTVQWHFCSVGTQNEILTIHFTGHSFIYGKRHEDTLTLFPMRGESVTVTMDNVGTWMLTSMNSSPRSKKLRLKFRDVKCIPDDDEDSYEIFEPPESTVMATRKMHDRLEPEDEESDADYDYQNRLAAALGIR
# Sequence (P12259 1574-2224 partner): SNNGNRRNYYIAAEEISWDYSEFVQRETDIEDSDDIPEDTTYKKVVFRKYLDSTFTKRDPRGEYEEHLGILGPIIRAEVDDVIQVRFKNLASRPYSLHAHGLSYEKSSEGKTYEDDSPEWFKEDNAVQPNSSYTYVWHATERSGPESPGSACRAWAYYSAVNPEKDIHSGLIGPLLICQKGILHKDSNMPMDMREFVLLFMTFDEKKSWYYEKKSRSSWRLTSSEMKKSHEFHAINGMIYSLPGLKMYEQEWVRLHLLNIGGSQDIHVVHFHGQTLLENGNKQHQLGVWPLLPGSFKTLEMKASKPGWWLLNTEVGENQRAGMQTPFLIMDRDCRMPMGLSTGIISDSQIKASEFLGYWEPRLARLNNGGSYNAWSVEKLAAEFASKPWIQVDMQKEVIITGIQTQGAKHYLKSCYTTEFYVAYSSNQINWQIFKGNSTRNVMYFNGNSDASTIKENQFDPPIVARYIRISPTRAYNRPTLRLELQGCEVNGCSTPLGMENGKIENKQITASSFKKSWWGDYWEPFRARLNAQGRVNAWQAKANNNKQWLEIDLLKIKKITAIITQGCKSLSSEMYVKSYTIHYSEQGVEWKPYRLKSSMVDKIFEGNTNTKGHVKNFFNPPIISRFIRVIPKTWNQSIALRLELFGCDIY
# assay-method-text: Prothrombin assay (prothrombinase, thrombin production)
# condition-set: human factor Xa, human blood platelets, substrate S-2238
# Protocol: The inhibitory ability of the compounds to be tested on Xa factor or other enzymes, such as thrombin or trypsin, in human or rats were determined by IC50 values, wherein the IC50 value was associated with the inhibition constant Ki. […] The enzyme inhibition constant (Ki) was calculated according to Cheng-Prusoff equation: Ki=IC50/(1+[S]/Km), where [S] was the substrate concentration and Km was the meter-Mann's constant determined by the double reciprocal mapping method. […]
Measured pKi by item
To interpret pKi, take it as minus log10 of a concentration measured in moles per litre.

Some compounds with recorded pKi:
INSERT INTO results (compound, observed_value) VALUES
  ('O=C(NC[C@@H]1OC(=O)N2c3ccc(N4CCCNC4=O)cc3OC[C@@H]12)c1ccc(Cl)s1 [Compound 7]', 8.36),
  ('O=C(NC[C@@H]1OC(=O)N2c3ccc(-n4ccccc4=O)cc3OC[C@@H]12)c1ccc(Cl)s1 [Compound 8]', 9.05),
  ('O=C(NC[C@@H]1OC(=O)N2c3ccc(N4CCOCC4=O)cc3OC[C@@H]12)c1ccc(Cl)s1 [Compound 1]', 9.33);

Which measured pKi value corresponds to COC[C@H]1CCCN1c1ccc2c(c1)OC[C@H]1[C@H](CNC(=O)c3ccc(Cl)s3)OC(=O)N21 [Compound 30] ?
7.79

---

As a worked illustration, we turn to Ki data collected for human coagulation factor Xa (Homo sapiens (Human)).
Please reply with the bare figure in nM and do not write the unit itself.

INSERT INTO assay_data (compound, test_readout, unit_name, observed_value) VALUES
  ('COC[C@H]1CCCN1c1ccc2c(c1)OC[C@H]1[C@H](CNC(=O)c3ccc(Cl)s3)OC(=O)N21 [Compound 30]', 'Ki', 'nM', 9.71);

# evaluate next
Look up Ki with human coagulation factor Xa (Homo sapiens (Human)) for this compound: O=C(NC[C@@H]1OC(=O)N2c3ccc(N4CCOCC4=O)cc3OC[C@@H]12)c1ccc(Cl)s1 [Compound 1]
1.01

This collection of values is drawn from patent US10106557B2.
